Biological target: T1, human SIRPβ isoform 1 (human, UniProt O00241 30-148)
T1 construct: also called SIRPb; sirpb1
T1 sequence (O00241 30-148 limits assumed): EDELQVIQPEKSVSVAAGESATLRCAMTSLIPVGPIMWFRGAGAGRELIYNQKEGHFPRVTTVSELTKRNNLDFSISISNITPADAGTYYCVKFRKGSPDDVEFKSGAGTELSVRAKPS
Experiment: SPR, Langmuir fit
readout_name: koff (s⁻¹)

• S22 (scFv, V domains shown, also called clone 22) VH: DVQLVESGGGVVRPGESLRLSCAASGFTFSSYAMSWVRQAPGKGLEWLAGISAGGSDTYYIDSVKGRFTISRRQFQEQSLSPNEPALTAEDTAVYYCARETWNHLFDYWGLGTLVTVSS VL: ALTQPASVSANPGETVKITCSGGDYYSTYYGWYQQKSPGSAPVTVIHSDDKRPSDIPSRFSGSASGSAATLTIAGVRVEDEAVYFCGAYDGRTYINTFGAGTTLTVL = 0.000138
• S24 (scFv, V domains shown, also called clone 24) VH: DVQLVESGGGVVRPGESLRLSCAASGFTFSSNAMSWVRQAPGKGLEWLAGISAGGSDTYYPASVKGRFTISRDNPKNTLYLQMNTLTAEDTAVYYCARETWNHLFDYWGLGTLVTVSS VL: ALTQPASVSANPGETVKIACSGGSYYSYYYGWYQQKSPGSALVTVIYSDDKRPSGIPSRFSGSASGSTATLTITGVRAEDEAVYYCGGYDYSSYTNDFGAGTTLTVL = 0.000194
